- System: A673/TR/shEF
- test_name: cell viability (LOESS-normalised, relative to median of negative controls) (log2 ratio); higher = more viable cells (less compound effect), active = hit call of the paper (over 3 MAD below the median)
- experimental_conditions: 0.025 µM; library screen: screen2; EWS-FLI1 expression: low (doxycycline-induced shRNA knockdown); treatment time: 72 h
The campaign covered roughly 3,200 compounds. About 300 (9.4%) showed activity. This excerpt belongs to a sample that is enriched for actives.
cell viability (log2) less than 0.06 is true (1); cell viability (log2) greater than or equal to 0.06 is false (0).

• C[n+]1cc2c3c(ccc2c2ccc4cc5c(cc4c21)OCO5)OCO3 = true (1)
• COc1ccc2cc3[n+](cc2c1OC)CCc1cc2c(cc1-3)OCO2 = false (0)
• CCN(CC)CCCC(C)Nc1ccnc2cc(Cl)ccc12 (configuration not stated) = true (1)
• S=c1nc[nH]c2nc[nH]c12 = false (0)
• Nc1ncnc2c1ncn2[C@@H]1O[C@H](CO)[C@@H](O)[C@@H]1O = true (1)
• CCN(CC)CCCC(C)Nc1c2ccc(Cl)cc2nc2ccc(OC)cc12 (configuration not stated) = false (0)

###

Each record here notes measured cell viability (log2).
- System: A673/TR/shEF
- test_name: cell viability (LOESS-normalised, relative to median of negative controls) (log2 ratio); higher = more viable cells (less compound effect), active = hit call of the paper (over 3 MAD below the median)
- experimental_conditions: 8.3 µM; library screen: screen3; EWS-FLI1 expression: low (doxycycline-induced shRNA knockdown); treatment time: 72 h
Screen size: about 3,200 compounds; about 300 (9.4%) showed activity. Only a selection was taken, and actives are over-represented in it overall.
readout_label: cell viability (log2)

- FC(F)(F)c1ccc(/C=C/c2nc(COc3ccc(CCCCn4ccnn4)cc3)co2)cc1: -0.193
- COc1cccc2c1C(=O)c1c(O)c3c(c(O)c1C2=O)C[C@@](O)(C(C)=O)C[C@@H]3O[C@H]1C[C@H](N)[C@H](O)[C@H](C)O1: -3.66
- Nc1ccn([C@@H]2O[C@H](CO)[C@@H](O)[C@@H]2O)c(=O)n1: -0.184
- COC(=O)Nc1ccc(-c2nc(N3CCOCC3)c3cnn(C4CCN(C(=O)OC)CC4)c3n2)cc1: -0.244
- CC1(COc2ccc3c(c2)ncn3-c2ccc3cccc(N4CCC(N)CC4)c3n2)COC1: -0.0084
- COc1cccc2c1C(=O)c1c(O)c3c(c(O)c1C2=O)C[C@@](O)(C(=O)CO)C[C@@H]3O[C@H]1C[C@H](N)[C@H](O)[C@H](C)O1: -4.27
- Nc1ccn([C@H]2CC[C@@H](CO)O2)c(=O)n1: 0.0663

###

- System: A673/TR/shEF
- test_name: cell viability (LOESS-normalised, relative to median of negative controls) (log2 ratio); higher = more viable cells (less compound effect), active = hit call of the paper (over 3 MAD below the median)
- experimental_conditions: 0.926 µM; library screen: screen3; EWS-FLI1 expression: high (no doxycycline); treatment time: 72 h
Among all 3,200 compounds or so, about 300 (9.4%) showed activity. The sample holds actives, similar compounds and a random draw of the others, so the mix is not that of the screen.
Possible outcomes: active, inactive

• CCC1=C[C@@H]2CN(C1)Cc1c([nH]c3ccccc13)[C@@](C(=O)OC)(c1cc3c(cc1OC)N(C)[C@H]1[C@@](O)(C(=O)OC)[C@H](OC(C)=O)[C@]4(CC)C=CCN5CC[C@]31[C@@H]54)C2 = active
• C#Cc1cccc(Nc2ncnc3cc(OC)c(OCCCCCCC(=O)NO)cc23)c1 = active
• COc1cc([C@@H]2c3cc4c(cc3[C@@H](O[C@@H]3O[C@@H]5CO[C@@H](C)O[C@H]5[C@H](O)[C@H]3O)[C@H]3COC(=O)[C@H]23)OCO4)cc(OC)c1O = inactive
• CCCS(=O)(=O)Nc1ccc(F)c(C(=O)c2c[nH]c3ncc(-c4ccc(Cl)cc4)cc23)c1F = inactive
• COc1ccc(-c2ccc3c(N4CCOC[C@@H]4C)nc(N4CCOC[C@@H]4C)nc3n2)cc1CO = active
• C[C@H]1COC2=C1C(=O)C(=O)c1c2ccc2c1CCCC2(C)C = inactive
• Oc1ccc(OCc2ccccc2)cc1 = inactive
• C[C@@H]1C/C=C/C=C/C=C/C=C/[C@H](OC2O[C@H](C)[C@@H](O)[C@H](N)[C@@H]2O)C[C@@H]2O[C@](O)(C[C@@H](O)C[C@H]3O[C@@H]3/C=C/C(=O)O1)C[C@H](O)[C@H]2C(=O)O (some centres not stated) = inactive
• Cn1c(=O)c2[nH]cnc2n(C)c1=O = inactive
• CN1CC[C@H](c2c(O)cc(O)c3c(=O)cc(-c4ccccc4Cl)oc23)[C@H](O)C1 = active
• O=C(CCCCCCC(=O)Nc1ccccc1)NO = inactive
• COc1c(C)c2c(c(O)c1C/C=C(\C)CCC(=O)O)C(=O)OC2 = inactive

###

- Tested on: A673/TR/shEF
- test_name: cell viability (LOESS-normalised, relative to median of negative controls) (log2 ratio); higher = more viable cells (less compound effect), active = hit call of the paper (over 3 MAD below the median)
- experimental_conditions: 0.103 µM; library screen: screen3; EWS-FLI1 expression: high (no doxycycline); treatment time: 72 h
Screen size: about 3,200 compounds; about 300 (9.4%) showed activity. The sample as a whole holds a higher share of actives than the screen did.
readout_label: cell viability (log2)

• S=c1nc[nH]c2nc[nH]c12 = 0.0192 (inactive)
• COc1ccc(-c2nc3ccc(C4=NNC(=O)CC4C)cc3[nH]2)cc1 (centres undefined) = -0.0122 (inactive)
• O=c1[nH]c(=O)n([C@H]2C[C@H](O)[C@@H](CO)O2)cc1C(F)(F)F = 0.105 (inactive)
• Cc1cn([C@@H]2C[C@@H](O)[C@H](CO)O2)c(=O)[nH]c1=O = 0.207 (inactive)
• CCCSc1ccc2nc(NC(=O)OC)[nH]c2c1 = 0.197 (inactive)
• CCN(CC)CC(=O)Nc1c(C)cccc1C = 0.148 (inactive)
• Cc1cnc(C(=O)NCCc2ccc(S(=O)(=O)NC(=O)NC3CCCCC3)cc2)cn1 = 0.103 (inactive)
• C[C@@H](Oc1cc(-c2cnn(C3CCNCC3)c2)cnc1N)c1c(Cl)ccc(F)c1Cl = 0.0466 (inactive)
• CO[C@@H](C(=O)N1Cc2[nH]nc(NC(=O)c3ccc(N4CCN(C)CC4)cc3)c2C1)c1ccccc1 = -0.25 (active)
• COc1c(C)c2c(c(O)c1C/C=C(\C)CCC(=O)OCCN1CCOCC1)C(=O)OC2 = 0.051 (inactive)
• Nc1cccc(-c2cc3c(Oc4cccc(O)c4)ncnc3[nH]2)c1 = 0.136 (inactive)
• CN1CCN(CCOc2cc(OC3CCOCC3)c3c(Nc4c(Cl)ccc5c4OCO5)ncnc3c2)CC1 = 0.0216 (inactive)
• O=c1[nH]c(=O)n([C@H]2C[C@H](O)[C@@H](CO)O2)cc1F = 0.0528 (inactive)
• Cn1c(=O)c2[nH]cnc2n(C)c1=O = 0.139 (inactive)

###

- Tested on: A673/TR/shEF
- test_name: cell viability (LOESS-normalised, relative to median of negative controls) (log2 ratio); higher = more viable cells (less compound effect), active = hit call of the paper (over 3 MAD below the median)
- experimental_conditions: 25 µM; library screen: screen3; EWS-FLI1 expression: high (no doxycycline); treatment time: 72 h
The campaign covered roughly 3,200 compounds. About 300 (9.4%) showed activity. The sample holds actives, similar compounds and a random draw of the others, so the mix is not that of the screen.
readout_label: cell viability (log2)

* O=c1[nH]c(=O)n([C@H]2C[C@H](O)[C@@H](CO)O2)cc1F | -1.03
* CC[C@]1(O)C[C@H]2CN(CCc3c([nH]c4ccccc34)[C@@](C(=O)OC)(c3cc4c(cc3OC)N(C=O)[C@H]3[C@@](O)(C(=O)OC)[C@H](OC(C)=O)[C@]5(CC)C=CCN6CC[C@]43[C@@H]65)C2)C1 | -3.66
* Cc1ccncc1Nc1ncccc1C(=O)Nc1ccc(C2(C#N)CCCC2)cc1 | -0.0197
* C[C@@H](Oc1cc(-c2cnn(C3CCNCC3)c2)cnc1N)c1c(Cl)ccc(F)c1Cl | -1.08
* CN(C)CCCN1c2ccccc2Sc2ccc(Cl)cc21 | -0.0174
* S=c1nc[nH]c2nc[nH]c12 | -0.314
* O=C1NC(=O)C(c2ccccc2)(c2ccccc2)N1 | 0.0771
* CNC[C@H](O)c1ccc(O)c(O)c1 | 0.098
* O=c1[nH]c(=O)n([C@H]2C[C@H](O)[C@@H](CO)O2)cc1C(F)(F)F | -0.362
* Cc1nc(N)sc1-c1ccnc(Nc2ccc(N3CCOCC3)cc2)n1 | -0.478
* COc1cc2c(cc1O)CC[C@@H]1[C@@H]2CC[C@]2(C)[C@@H](O)CC[C@@H]12 | -1.25
* CO[C@@H](C(=O)N1Cc2[nH]nc(NC(=O)c3ccc(N4CCN(C)CC4)cc3)c2C1)c1ccccc1 | -1.13
* COC(=O)Nc1ccc(-c2nc(N3CCOCC3)c3cnn(C4CCN(C(=O)OC)CC4)c3n2)cc1 | -0.744
* Cc1cn([C@@H]2C[C@@H](O)[C@H](CO)O2)c(=O)[nH]c1=O | 0.139
* COC(=O)Nc1ccc(-c2nc(N3CCOCC3)c3cnn(C4CCN(Cc5cccnc5)CC4)c3n2)cc1 | -1.84
* Cc1cn([C@H]2C=C[C@@H](CO)O2)c(=O)[nH]c1=O | 0.0208
* CCC1(c2ccccc2)C(=O)NCNC1=O | 0.121
* CN1/C(=C(\O)Nc2ccccn2)C(=O)c2ccccc2S1(=O)=O | 0.152
* CN(C)c1ccc(C(=C2C=CC(=[N+](C)C)C=C2)c2ccc(N(C)C)cc2)cc1 | -4.26
